- Test system: SF-539 CNS
- procedure-summary: NCI-60 one-dose screen, 48 h
- details: 10 µM unless noted
Compounds without any hit were thinned out: in the full panel of roughly 83,000, 20% have a hit. Calls of active or inactive are those of the source. How the source made its calls: active means growth percent below 10; inactive means the rest.
Entry note: the call must match one of active, inactive

Would you mind telling me which call this test gave CCCCCCNC(=O)Nc1ccc2cc3ccc(NC(=O)NCCCCCC)cc3nc2c1 ?
active

// same read-out, input: COc1ccc(C(=O)NNc2nc(Cl)nc(N3CCN(C(c4ccccc4)c4ccccc4)CC3)n2)cc1
inactive

// same read-out, input: COc1cccc(C(=O)NNc2nc(Cl)nc(N3CCN(C(c4ccccc4)c4ccccc4)CC3)n2)c1
inactive

// same read-out, input: CC(=O)N1c2ccccc2NC2=C(C(=O)NC2(C)C)C1c1ccco1 (stereo not given)
inactive

// same read-out, input: COc1cc(/C=C\C(=O)O)ccc1OCc1ccccc1
inactive

// same read-out, input: CCN1C(=O)N(CC)C2Nn3c(s/c(=C\c4ccc(OC)cc4)c3=O)=NC21 (stereo not given)
inactive

// same read-out, input: COc1ccc2c(c1)oc1c(C)c3c(c(C)c12)C(=O)N(CCN1CCOCC1)C3=O
inactive

// same read-out, input: COc1ccc(NC(=O)c2cc(NCc3cc(O)ccc3O)ccc2O)cc1
inactive

// same read-out, input: O=[N+]([O-])CC(c1ccccc1F)c1c[nH]c2ccccc12 (stereo not given)
inactive

// same read-out, input: COc1ccc2[nH]c(O)c(/C=c3/cc4c(c(-c5ccc(F)cc5)n3)=Nc3ccccc3-4)c2c1
inactive
